Target: T1, Full length MAGEA4 WT (N-terminal histidine tag) (human, UniProt P43358 1-317)
T1 sequence: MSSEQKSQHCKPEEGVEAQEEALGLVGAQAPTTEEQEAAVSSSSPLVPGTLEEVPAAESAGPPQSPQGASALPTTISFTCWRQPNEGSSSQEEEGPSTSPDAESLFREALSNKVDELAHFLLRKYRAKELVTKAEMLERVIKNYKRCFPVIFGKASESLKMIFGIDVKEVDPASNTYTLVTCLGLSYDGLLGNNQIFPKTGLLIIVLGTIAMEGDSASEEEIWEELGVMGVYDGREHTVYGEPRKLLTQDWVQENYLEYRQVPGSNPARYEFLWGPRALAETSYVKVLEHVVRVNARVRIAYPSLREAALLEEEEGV
Test: ITC
recorded endpoint: Kd (nM)

• SKYRKKHKSEFQLLVDQARKGYKKIAG [RAD18 R6BD peptide (27 amino acid peptide containing amino acids 340-366 of RAD18)] = 405
